Where these numbers come from: paper PMC5540273

# Test system: TAK1
# Construct: gene MAP3K7
# condition_details: concentration: 1 μM, replicates: in singlicate; n = 1;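 note: KINOMEscan kinase panel screen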
In plain terms, low %Inh, meaning strictly below 7%, gives Criterion met, and everything else gives Criterion not met.

{"columns": ["compound", "study_system", "label_value"],
 "data": [
  ["Cl.Cl.c1ccc(-c2cc3ccncc3cc2OC2CCNCC2)cc1 [GSK1122999]", "TAK1", "Criterion met"],
  ["CCn1c(-c2ccncc2)nc2cnccc21 [SB-735216]", "TAK1", "Criterion not met"],
  ["COc1cc2c(Nc3cccc(NC(=O)c4ccccc4)c3)ncnc2cc1OCCCN1CCOCC1 [GSK223810]", "TAK1", "Criterion met"],
  ["C[C@@H]1CCN(C(=O)CO)C[C@@H]1N(C)c1ncnc2[nH]ccc12", "TAK1", "Criterion not met"],
  ["Cl.c1ccc(Cn2ncc3cc(Nc4ncnc5ccccc45)ccc32)cc1 [GW273749]", "TAK1", "Criterion met"],
  ["Fc1ccc(Nc2nccc(-c3c(-c4ccc(Cl)cc4)nn4ncccc34)n2)cc1F [GW829058]", "TAK1", "Criterion not met"],
  ["c1ccc(-c2ccc3c(-c4ccnc(Nc5ccc6c(c5)OCCO6)n4)cnn3n2)cc1 [GW818941]", "TAK1", "Criterion met"],
  ["COc1ccc(-c2oc3ncnc(N)c3c2-c2ccc(OC)cc2)cc1 [SB-589132]", "TAK1", "Criterion met"],
  ["CC(=O)Nc1n[nH]c2ncc(-c3ccccc3)cc12 [SB-548492]", "TAK1", "Criterion not met"],
  ["CCCc1ccc(S(=O)(=O)NC2CCN(c3ccnc(Nc4ccc(OC)cc4)n3)C2)cc1 (stereo not shown) [GSK1379737]", "TAK1", "Criterion met"],
  ["O=C(Nc1ccccc1F)NC1CCN(c2ccnc(Nc3ccc(F)cc3)n2)C1 (stereo not shown) [GSK1379722]", "TAK1", "Criterion met"],
  ["Clc1ccc(-c2cc(-c3c[nH]nc3-c3ccccn3)ccn2)cc1 [GW681251]", "TAK1", "Criterion met"]
]}

====

Measured %Inh by item
# Test system: LATS2
# condition_details: concentration: 1 μM, replicates: in singlicate; n = 1

{"columns": ["molecule", "measurement_units", "%Inh"],
 "data": [
  ["Cc1cc(N2CCC(NS(=O)(=O)c3ccc(F)cc3)CC2)nc(Nc2cccc(C#N)c2)n1.O=C(O)C(F)(F)F [GSK1653537]", "%", 0],
  ["COc1ccc(NC(=O)c2ccc(-c3cc(-c4nnc(C)o4)ccc3C)cc2)cc1 [GW595885]", "%", 0],
  ["CC(=O)Nc1n[nH]c2ncc(-c3ccccc3)cc12 [SB-548492]", "%", 4],
  ["Fc1cccc(COc2ccc(Nc3ncnc4nn5ccccc5c34)cc2Cl)c1 [GW689066]", "%", 0],
  ["Cn1ccc2ncnc(Oc3ccc(NC(=O)Nc4cccnc4)c(Cl)c3)c21", "%", 0],
  ["C[C@H]1CC[C@@H](C(=O)Nc2ccccc2)CN1c1cc(-c2ccc3c(N)n[nH]c3c2)nc(N)n1 [GSK2283293]", "%", 9],
  ["COc1ccc(NC(=O)Nc2ccc(C)c(-c3ccc(C(=O)Nc4ccncc4)cc3)c2)cc1 [GSK1398475]", "%", 6],
  ["COc1cc2ncnc(Nc3ccc(OCc4ccccc4Br)c(Cl)c3)c2cc1OC.Cl [GI261590]", "%", 3],
  ["Nc1nc(-c2ccc3c(N)n[nH]c3c2)cc(N2CCCCC2)n1 [GSK2228768]", "%", 0],
  ["COC(=O)c1c(-c2ccccc2)c2cc(Cl)ccc2c(=O)n1Cc1ccc(S(C)(=O)=O)cc1", "%", 19],
  ["CCC(CC)(CC)n1cnc2c(N)ncnc21 [SKF-97620]", "%", 0],
  ["CC(C)(C)c1ccc(-n2cnc3c(N)ncnc32)cc1 [SKF-97263]", "%", 18],
  ["O=c1cc(N2CCOCC2)nc2n(Cc3cccc(Cl)c3)ccn12 [GSK2296823]", "%", 46],
  ["FC(F)(F)c1ccc(-c2cc(-c3c[nH]nc3-c3ccccn3)ccn2)cc1 [GW599550]", "%", 40],
  ["Oc1ccc2ncnc(Nc3ccc(OCc4ccccc4)cc3)c2c1 [GI262866]", "%", 0],
  ["Fc1ccc(Nc2nccc(-c3c(-c4ccc(Cl)cc4)nn4ncccc34)n2)cc1F [GW829058]", "%", 19],
  ["Cn1ccc2ncnc(Nc3ccc(Oc4cccc(Cl)c4)c(Cl)c3)c21", "%", 0],
  ["Cl.c1ccc(Cn2ccc3cc(Nc4ncnc5ccccc45)ccc32)cc1 [GW275568]", "%", 22]
]}
